System: SK-OV-3 ovarian
protocolDetails: NCI tumour cell line growth inhibition, 48 h
assayEndpoint: TGI

[
  {
    "compound": "CCN(CC)CCOc1ccc(N2C(=O)c3cc(OC)c(OC)cc3C2=O)cc1",
    "val": "> 100 µM"
  },
  {
    "compound": "CC(=O)[O-].CC(=O)[O-].CC(=O)[O-].CC(=O)[O-].[Mo+2].[Mo+2]",
    "val": "> 100 µM"
  },
  {
    "compound": "CC1=C(C(=O)Nc2ccccc2C)C(/C=C/c2ccccc2)C(C(=O)Nc2ccccc2C)=C(C)N1",
    "val": "> 100 µM"
  },
  {
    "compound": "C=C[C@@H]1C(CO)=CCC2[C@H]1CCC1C(C)(C)C(=O)CC[C@]21C (stereo partly specified)",
    "val": "> 100 µM"
  },
  {
    "compound": "NC(=O)/C=C/C(=O)O",
    "val": "> 5000 µM"
  },
  {
    "compound": "Cc1cc(=O)c2c([nH]1)NS(=O)(=O)NC2=O",
    "val": "> 100 µM"
  },
  {
    "compound": "CN(C)C(=S)S",
    "val": "> 100 µM"
  },
  {
    "compound": "CC12CC(=O)C3C(C(=O)C1)C32C (stereo unspecified)",
    "val": "> 100 µM"
  },
  {
    "compound": "NNC(=O)c1ccc[n+](CCc2ccccc2)c1",
    "val": "> 100 µM"
  },
  {
    "compound": "CN(C)c1nc(=NCc2ccccc2)ss1",
    "val": "> 10 µM"
  },
  {
    "compound": "N#C/C(=C\\c1cc(Br)c(O)c(Br)c1)c1cccnc1",
    "val": "> 100 µM"
  }
]

----------
System: CAKI-1 renal
protocolDetails: NCI tumour cell line growth inhibition, 48 h
Where a SMILES comes first, the peptide text is derived from it. The star is where a group is joined. Boc = CC(C)(C)OC(=O)*
The reader will find reported TGI values listed item by item below.
assayEndpoint: TGI

[
  {
    "molecule": "CC(=O)OC1COC(n2c(=S)n(-c3ccccc3)c(=O)c3cc(Br)ccc32)C(OC(C)=O)C1OC(C)=O (stereo not drawn)",
    "val": "> 100 µM"
  },
  {
    "molecule": "NC(N)=NS(=O)(=O)c1ccc(NC(=O)c2cccc3c(Nc4ccc(S(N)(=O)=O)cc4)c4ccccc4nc23)cc1",
    "val": "> 100 µM"
  },
  {
    "molecule": "O=c1c2c3c(sc2n2c(-c4cc(-c5ccccc5)nn4-c4ccccc4)nnc2n1Cc1ccccc1)CCCC3",
    "val": "> 100 µM"
  },
  {
    "molecule": "CNC(SC)=C1C(=O)OC(C)(C)OC1=O",
    "val": "> 100 µM"
  },
  {
    "molecule": "COc1cc2cnc3c4ccccc4ccc3c2cc1OC",
    "val": "> 100 µM"
  },
  {
    "molecule": "c1ccc2c(c1)NC(C1OC3CCCN3C1C1Nc3ccccc3S1)S2 (stereo not drawn)",
    "val": "> 100 µM"
  },
  {
    "molecule": "CC1(c2ccccc2)CC(c2ccccc2)=NO1 (stereo not drawn)",
    "val": "> 100 µM"
  },
  {
    "molecule": "CC(=O)[CH-]C(C)=O.[CH2-]C.[CH2-]C.[Tl+3]",
    "val": "> 100 µM"
  },
  {
    "molecule": "CCCn1c(CN(Cc2nc3ccccc3n2CCC)Cc2nc3ccccc3n2CCC)nc2ccccc21",
    "val": "> 29 µM"
  },
  {
    "molecule": "C=C[C@@H]1C(CO)=CCC2[C@H]1CCC1C(C)(C)C(=O)CC[C@]21C (stereo partly drawn)",
    "val": "> 100 µM"
  },
  {
    "molecule": "O=c1oc(-c2ccc(O)c(O)c2)cc2cccc(O)c12",
    "val": "38.7 µM"
  },
  {
    "molecule": "O=C(NCCN1CCOCC1)c1ccc2cc(C(=O)N3CC(CCl)c4ccc([N+](=O)[O-])cc43)[nH]c2c1 (stereo not drawn)",
    "val": "52.4 µM"
  },
  {
    "molecule": "CC(C)(C)OC(=O)NCC(=O)NCC(=O)NCC(=O)NCC(=O)O (Boc-GGGG-OH)",
    "val": "> 100 µM"
  },
  {
    "molecule": "O=C/C(=C(/Cl)c1ccc(O)cc1)c1ccccc1",
    "val": "> 56.8 µM"
  },
  {
    "molecule": "O=C1/C(=C\\c2cccc(Oc3ccccc3)c2)S(=O)(=O)C(c2ccccc2)N1Cc1ccccc1 (stereo not drawn)",
    "val": "75 µM"
  },
  {
    "molecule": "O=C1C(SCCO)=C(SCCO)C(=O)c2ccccc21",
    "val": "4.24 µM"
  },
  {
    "molecule": "COc1ccccc1/C=C/C(=O)/C=C/c1ccccc1O",
    "val": "5.53 µM"
  },
  {
    "molecule": "COC(=O)[C@]12CC[C@H]3CN(C(=O)OCc4ccccc4)[C@H]([C@H]31)[C@H](c1ccco1)N2S(=O)(=O)c1ccc(C)cc1",
    "val": "89.4 µM"
  },
  {
    "molecule": "CC(O)C1CC1(CO)CNc1cc(Cl)nc(N)n1 (stereo not drawn)",
    "val": "> 100 µM"
  },
  {
    "molecule": "O=C1C=C(O)c2[nH]c(=O)ccc2C1=O",
    "val": "> 100 µM"
  },
  {
    "molecule": "C[C@H](Cn1ncnn1)Nc1ncc2cc(Oc3ccc(F)cc3F)c(=O)n(C)c2n1",
    "val": "> 25 µM"
  },
  {
    "molecule": "Cc1nnc(N/N=C(/C(=O)C(C#N)c2ccccc2)C(C#N)c2ccccc2)n1N (stereo not drawn)",
    "val": "> 56 µM"
  },
  {
    "molecule": "Cn1c([N+](=O)[O-])cnc1/C=C1\\Oc2cc(Cl)ccc2C1=O",
    "val": "1.18 µM"
  },
  {
    "molecule": "CC(=O)NNc1nc(C)c(C(=O)NNC(=O)C(=O)Nc2nc3ccc([N+](=O)[O-])cc3s2)s1",
    "val": "> 92.6 µM"
  },
  {
    "molecule": "CCCCCCCCCCN=C(c1ccc(N(C)C)cc1)c1ccc(N(C)C)cc1",
    "val": "64.3 µM"
  },
  {
    "molecule": "O=C(/C=C/c1ccccc1)CC(c1ccccc1)N1CCOCC1 (stereo not drawn)",
    "val": "12.9 µM"
  },
  {
    "molecule": "COc1ccc(C#CC(=O)O)c(OC)c1",
    "val": "> 100 µM"
  },
  {
    "molecule": "COc1cc(NS(C)(=O)=O)ccc1N1Cc2cnc3ccc4[nH]c(C)cc1c4c23",
    "val": "74.5 µM"
  },
  {
    "molecule": "c1ccc2sc(SCSc3nc4ccccc4s3)nc2c1",
    "val": "> 100 µM"
  },
  {
    "molecule": "COc1ccccc1-c1cc(=O)c2ccc(C)nc2[nH]1",
    "val": "> 100 µM"
  },
  {
    "molecule": "Cn1c(/C(C#N)=C/c2ccc3ccccc3c2)cc2ccccc21",
    "val": "> 100 µM"
  },
  {
    "molecule": "O=C1c2cccnc2-c2nc(-c3ccncc3)cc3c2c1nc1ccccc13",
    "val": "34.8 µM"
  },
  {
    "molecule": "CCOC(=O)c1c(-c2ccc(OC)cc2)c(C#N)c(=S)n(C2OC(COC(C)=O)C(OC(C)=O)C(OC(C)=O)C2OC(C)=O)c1C (stereo not drawn)",
    "val": "> 100 µM"
  }
]
